Data origin: ChEMBL document CHEMBL5321258

Tested on: HeLa
Assay: Anticancer activity against human Hela cells assessed as inhibition rate at 30 uM by SRB assay relative to control
Type: functional
Listed here: items and their measured inhibition at 30 µM.
reportedEndpoint: inhibition at 30 µM (%)

>>> df
                                   compound  datavalue
0  CCN(CC)c1ccc2cc(C(=O)c3ccc(OCCN4CCN(C(=O)CN5CCN(C(=O)c6ccc(C)cc6)CC5)CC4)cc3)oc2c1       90.1
1  CCN(CC)c1ccc2cc(C(O)c3ccc(OCCN4CCN(C(=O)CN5CCN(C(=O)c6ccccc6C(F)(F)F)CC5)CC4)cc3)oc2c1 (centres undefined)       49.8
2  CCN(CC)c1ccc2cc(C(=O)c3ccc(OCCN4CCN(C(=O)CN5CCN(C(=O)c6ccc(Br)cc6C(F)(F)F)CC5)CC4)cc3)oc2c1       62.2
3  C=C(C)C(=O)N1CCN(CC(=O)N2CCN(CCOc3ccc(C(=O)c4cc5ccc(N(CC)CC)cc5o4)cc3)CC2)CC1        3.2

----------
System: A549
Experiment: Anticancer activity against human A549 cells assessed as inhibition rate at 10 uM by SRB assay relative to control
Format: functional
Rule: inhibition at 10 µM of 30% or more gives fulfilled; anything lower gives not fulfilled.

>>> print(df.to_string())
                            molecularstring  assignedclass
0  C=CC(=O)N1CCN(CC(=O)N2CCN(CCOc3ccc(C(=O)c4cc5ccc(N(CC)CC)cc5o4)cc3)CC2)CC1  not fulfilled
1  CCN(CC)c1ccc2cc(C(=O)c3ccc(OCCN4CCN(C(=O)CN5CCN(C(=O)c6ccc(C(F)(F)F)cc6)CC5)CC4)cc3)oc2c1      fulfilled
2  CCN(CC)c1ccc2cc(C(=O)c3ccc(OCCN4CCN(C(=O)CN5CCN(C(=O)c6ccc(C)cc6)CC5)CC4)cc3)oc2c1      fulfilled
3  CCN(CC)c1ccc2cc(C(=O)c3ccc(OCCN4CCN(C(=O)CN5CCN(C(=O)c6ccc([N+](=O)[O-])cc6)CC5)CC4)cc3)oc2c1  not fulfilled
4  CCc1ccc(C(=O)N2CCN(CC(=O)N3CCN(CCOc4ccc(C(=O)c5cc6ccc(N(CC)CC)cc6o5)cc4)CC3)CC2)cc1  not fulfilled
5  CCN(CC)c1ccc2cc(C(=O)c3ccc(OCCN4CCN(C(=O)CN5CCN(C(=O)c6ccc(OC)cc6)CC5)CC4)cc3)oc2c1      fulfilled
6  CCN(CC)c1ccc2cc(C(=O)c3ccc(OCCN4CCN(C(=O)CN5CCN(C(=O)c6ccc(F)cc6)CC5)CC4)cc3)oc2c1  not fulfilled

----------
Tested on: HeLa
Experiment: Anticancer activity against human Hela cells assessed as inhibition rate at 30 uM by SRB assay relative to control
Assay type: functional
reportedEndpoint: inhibition at 30 µM

>>> print(df.to_string())
                                    compound  datavalue
 0  CCN(CC)c1ccc2cc(C(O)c3ccc(OCCN4CCN(C(=O)CN5CCN(C(=O)c6ccc(OC)cc6)CC5)CC4)cc3)oc2c1 (centres undefined)      66.7%
 1  CCN(CC)c1ccc2cc(C(O)c3ccc(OCCN4CCN(C(=O)CN5CCN(C(=O)c6cccc(C(F)(F)F)c6)CC5)CC4)cc3)oc2c1 (centres undefined)      69.5%
 2  C=CC(=O)N1CCN(CC(=O)N2CCN(CCOc3ccc(C(O)c4cc5ccc(N(CC)CC)cc5o4)cc3)CC2)CC1 (centres undefined)      90.7%
 3  CCN(CC)c1ccc2cc(C(O)c3ccc(OCCN4CCN(C(=O)CN5CCN(C(=O)c6ccccc6F)CC5)CC4)cc3)oc2c1 (centres undefined)        92%
 4  CCN(CC)c1ccc2cc(C(=O)c3ccc(OCCN4CCN(C(=O)CN5CCN(C(=O)c6ccc(C(F)(F)F)cc6)CC5)CC4)cc3)oc2c1      94.9%
 5  CCN(CC)c1ccc2cc(C(=O)c3ccc(OCCN4CCN(C(=O)CN5CCN(C(=O)c6ccc(OC)cc6)CC5)CC4)cc3)oc2c1      64.1%
 6  C=C(C)C(=O)N1CCN(CC(=O)N2CCN(CCOc3ccc(C(O)c4cc5ccc(N(CC)CC)cc5o4)cc3)CC2)CC1 (centres undefined)      30.5%
 7  CCN(CC)c1ccc2cc(C(=O)c3ccc(OCCN4CCN(C(=O)CN5CCN(C(=O)c6ccccc6C(F)(F)F)CC5)CC4)cc3)oc2c1      44.1%
 8  CCN(CC)c1ccc2cc(C(=O)c3ccc(OCCN4CCN(C(=O)CN5CCN(C(=O)c6ccc7ccccc7c6)CC5)CC4)cc3)oc2c1      85.3%
 9  CCN(CC)c1ccc2cc(C(=O)c3ccc(OCCN4CCN(C(=O)CN5CCN(C(=O)c6ccc(Cl)cc6)CC5)CC4)cc3)oc2c1        89%
10  CCN(CC)c1ccc2cc(C(=O)c3ccc(OCCN4CCN(C(=O)CN5CCN(C(=O)c6cccc(C(F)(F)F)c6)CC5)CC4)cc3)oc2c1      70.1%
11  CCN(CC)c1ccc2cc(C(O)c3ccc(OCCN4CCN(C(=O)CN5CCN(C(=O)c6ccc7ccccc7c6)CC5)CC4)cc3)oc2c1 (centres undefined)        24%
12  CCN(CC)c1ccc2cc(C(=O)c3ccc(OCCN4CCN(C(=O)CN5CCN(C(=O)c6ccc([N+](=O)[O-])cc6)CC5)CC4)cc3)oc2c1        24%
13  CCN(CC)c1ccc2cc(C(O)c3ccc(OCCN4CCN(C(=O)CN5CCN(C(=O)c6ccc(C(F)(F)F)cc6)CC5)CC4)cc3)oc2c1 (centres undefined)      19.8%

----------
System: HeLa
Assay: Anticancer activity against human HeLa cells assessed as inhibition of cell proliferation by SRB assay
Assay type: functional, cell-based
Label criterion met when IC50 < 9 µM; otherwise criterion not met.

In [3]: df
Out[3]:
                                    compound      assignedclass
 0  C=CC(=O)N1CCN(CC(=O)N2CCN(CCOc3ccc(C(O)c4cc5ccc(N(CC)CC)cc5o4)cc3)CC2)CC1 (stereo not drawn)      criterion met
 1  CCN(CC)c1ccc2cc(C(O)c3ccc(OCCN4CCN(C(=O)CN5CCN(C(=O)c6ccccc6F)CC5)CC4)cc3)oc2c1 (stereo not drawn)      criterion met
 2  CCN(CC)c1ccc2cc(C(=O)c3ccc(OCCN4CCN(C(=O)CN5CCN(C(=O)c6ccc(Cl)cc6)CC5)CC4)cc3)oc2c1  criterion not met
 3  CCN(CC)c1ccc2cc(C(O)c3ccc(OCCN4CCN(C(=O)CN5CCN(C(=O)c6cccc(C(F)(F)F)c6)CC5)CC4)cc3)oc2c1 (stereo not drawn)  criterion not met
 4  CCN(CC)c1ccc2cc(C(O)c3ccc(OCCN4CCN(C(=O)CN5CCN(C(=O)c6ccc7ccccc7c6)CC5)CC4)cc3)oc2c1 (stereo not drawn)  criterion not met
 5  CCN(CC)c1ccc2cc(C(=O)c3ccc(OCCN4CCN(C(=O)CN5CCN(C(=O)c6ccc(C(F)(F)F)cc6)CC5)CC4)cc3)oc2c1      criterion met
 6  CCc1ccc(C(=O)N2CCN(CC(=O)N3CCN(CCOc4ccc(C(=O)c5cc6ccc(N(CC)CC)cc6o5)cc4)CC3)CC2)cc1  criterion not met
 7  CCN(CC)c1ccc2cc(C(O)c3ccc(OCCN4CCN(C(=O)CN5CCN(C(=O)c6ccc(C)cc6)CC5)CC4)cc3)oc2c1 (stereo not drawn)  criterion not met
 8  CCN(CC)c1ccc2cc(C(O)c3ccc(OCCN4CCN(C(=O)CN5CCN(C(=O)c6ccc(F)cc6)CC5)CC4)cc3)oc2c1 (stereo not drawn)  criterion not met
 9  CCN(CC)c1ccc2cc(C(=O)c3ccc(OCCN4CCN(C(=O)CN5CCN(C(=O)c6ccc(OC)cc6)CC5)CC4)cc3)oc2c1  criterion not met
10  CCN(CC)c1ccc2cc(C(O)c3ccc(OCCN4CCN(C(=O)CN5CCN(C(=O)c6ccc(C(F)(F)F)cc6)CC5)CC4)cc3)oc2c1 (stereo not drawn)  criterion not met
11  CCN(CC)c1ccc2cc(C(=O)c3ccc(OCCN4CCN(C(=O)CN5CCN(C(=O)c6ccc(C)cc6)CC5)CC4)cc3)oc2c1      criterion met
12  CCN(CC)c1ccc2cc(C(=O)c3ccc(OCCN4CCN(C(=O)CN5CCN(C(=O)c6ccc7ccccc7c6)CC5)CC4)cc3)oc2c1  criterion not met

----------
System: A549
Assay: Anticancer activity against human A549 cells assessed as inhibition rate at 10 uM by SRB assay relative to control
Format: functional
reportedEndpoint: inhibition at 10 µM (%)

                                    molecule  targetorsystem     reportedendpoint  datavalue
 0  CCN(CC)c1ccc2cc(C(=O)c3ccc(OCCN4CCN(C(=O)CN5CCN(C(=O)c6ccc(Br)cc6C(F)(F)F)CC5)CC4)cc3)oc2c1            A549  inhibition at 10 µM       41.4
 1  CCN(CC)c1ccc2cc(C(=O)c3ccc(OCCN4CCN(C(=O)CN5CCN(C(=O)c6cccc(C(F)(F)F)c6)CC5)CC4)cc3)oc2c1            A549  inhibition at 10 µM       49.3
 2  C=CC(=O)N1CCN(CC(=O)N2CCN(CCOc3ccc(C(O)c4cc5ccc(N(CC)CC)cc5o4)cc3)CC2)CC1 (stereo not given)            A549  inhibition at 10 µM       51.9
 3  CCN(CC)c1ccc2cc(C(O)c3ccc(OCCN4CCN(C(=O)CN5CCN(C(=O)c6ccc(C)cc6)CC5)CC4)cc3)oc2c1 (stereo not given)            A549  inhibition at 10 µM       77.9
 4  CCN(CC)c1ccc2cc(C(O)c3ccc(OCCN4CCN(C(=O)CN5CCN(C(=O)c6ccc([N+](=O)[O-])cc6)CC5)CC4)cc3)oc2c1 (stereo not given)            A549  inhibition at 10 µM       19.2
 5  CCN(CC)c1ccc2cc(C(=O)c3ccc(OCCN4CCN(C(=O)CN5CCN(C(=O)c6ccccc6F)CC5)CC4)cc3)oc2c1            A549  inhibition at 10 µM       66.4
 6  CCc1ccc(C(=O)N2CCN(CC(=O)N3CCN(CCOc4ccc(C(O)c5cc6ccc(N(CC)CC)cc6o5)cc4)CC3)CC2)cc1 (stereo not given)            A549  inhibition at 10 µM       47.9
 7  CCN(CC)c1ccc2cc(C(=O)c3ccc(OCCN4CCN(C(=O)CN5CCN(C(=O)c6ccccc6C(F)(F)F)CC5)CC4)cc3)oc2c1            A549  inhibition at 10 µM       27.3
 8  CCN(CC)c1ccc2cc(C(=O)c3ccc(OCCN4CCN(C(=O)CN5CCN(C(=O)c6ccc7ccccc7c6)CC5)CC4)cc3)oc2c1            A549  inhibition at 10 µM       30.9
 9  CCN(CC)c1ccc2cc(C(=O)c3ccc(OCCN4CCN(C(=O)CN5CCN(C(=O)c6cc(Cl)cc(Cl)c6)CC5)CC4)cc3)oc2c1            A549  inhibition at 10 µM       39.8
10  C=C(C)C(=O)N1CCN(CC(=O)N2CCN(CCOc3ccc(C(=O)c4cc5ccc(N(CC)CC)cc5o4)cc3)CC2)CC1            A549  inhibition at 10 µM       36.1
11  C=C(C)C(=O)N1CCN(CC(=O)N2CCN(CCOc3ccc(C(O)c4cc5ccc(N(CC)CC)cc5o4)cc3)CC2)CC1 (stereo not given)            A549  inhibition at 10 µM       22.2
12  CCN(CC)c1ccc2cc(C(O)c3ccc(OCCN4CCN(C(=O)CN5CCN(C(=O)c6cccc(C(F)(F)F)c6)CC5)CC4)cc3)oc2c1 (stereo not given)            A549  inhibition at 10 µM       65.1
13  CCN(CC)c1ccc2cc(C(=O)c3ccc(OCCN4CCN(C(=O)CN5CCN(C(=O)c6ccc(Cl)cc6)CC5)CC4)cc3)oc2c1            A549  inhibition at 10 µM       22.9
14  CCN(CC)c1ccc2cc(C(O)c3ccc(OCCN4CCN(C(=O)CN5CCN(C(=O)c6ccc(OC)cc6)CC5)CC4)cc3)oc2c1 (stereo not given)            A549  inhibition at 10 µM       55.2
